System: MPA bound to plasma proteins in normal human plasma (NHP)
measurement.description: MPA enzyme immunoassay rates with releasing agents in Reagent A (NHP versus buffer), Example 2
test.context: 10 μg/mL MPA; closer to zero = better releasing effect
value.kind: J (H-F) Buff-NHP Rate Diff. (mA/min)

COc1ccc(C(=O)O)cc1
−2.1
O=S(=O)(O)c1cccc2cccc(Nc3ccccc3)c12 [ANS, 8-anilino-1-naphthalene sulfonic acid, reference compound]
2.0
COc1cccc(C(=O)O)c1
−0.6
COc1ccccc1C(=O)O
0.6
